So I've got a bunch of molecules here, and I need their viability values.
Assay: reversal of MRP1-mediated doxorubicin resistance, pilot screen, H69AR cells, doxorubicin co-treatment (AID 601)
Conditions: H69AR cells, CellTiter-Glo, 72 h; compound alone cytotoxicity; at 10 µM
Please answer using a numeric value trailed by its unit.

Task: For the molecule `O=C(CCN1CCN(CCO)CC1)Nc1ccc(OCc2ccccc2)cc1` , give its measured viability value.
Result: 88.9%

Task: For the molecule CC(=O)OC1CSc2nc3ccccc3n2C1 (stereo unspecified) , give its measured viability value.
Result: 93.4%

Task: For the molecule `Cn1c(=O)c2c(nc(CN3CCN(c4ccccc4F)CC3)n2CCN2CCOCC2)n(C)c1=O` , give its measured viability value.
Result: 93.9%

Task: For the molecule COc1ccc(N2CCN(C(=O)CN3C(=O)C4CC=CCC4C3=O)CC2)cc1 (stereo unspecified) , give its measured viability value.
Result: 94.6%

Task: For the molecule CC1Cc2ccccc2N1C(=O)c1cccnc1 (stereo unspecified) , give its measured viability value.
Result: 98.1%

Task: For the molecule `CCOC(=O)N1CCN(C(=O)c2ccc(N3C(=O)CCC3=O)cc2)CC1` , give its measured viability value.
Result: 105%

###

Test: HUVEC growth inhibition – cell-based, human, primary screen (AID 575);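 also: 100% = median of untreated cell wells with 0.1% DMSO on each plate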
Conditions: HUVEC proliferation, CellTiter-Glo luminescence, 72 h; at 10 µM; stronger effect = lower value
outcome_measure: viability (%)
Reply numerically in %, unit not repeated.

Task: For the molecule `Cc1c(Cl)cccc1NC(=O)CCN1CCCCCC1` , give its measured viability value.
Result: 103

Task: For the molecule `CCc1cn([C@H]2C[C@H](O)[C@@H](CO)O2)c(=O)[nH]c1=O` , give its measured viability value.
Result: 93.2

Task: For the molecule `CCSC(SCC)[C@H](O)[C@@H](O)[C@H](O)[C@H](O)CO` , give its measured viability value.
Result: 104

Task: For the molecule `Cc1cccc(C)c1OCC(=O)Nc1cccc(NC(=O)c2ccco2)c1` , give its measured viability value.
Result: 71.2

Task: For the molecule `Cc1cccc2cc(C#N)c(NCCNC(=O)NC3CCCCC3)nc12` , give its measured viability value.
Result: 48.3

Task: For the molecule `Cc1nn(Cc2ccccc2)c(C)c1NC(=O)CCC(=O)O` , give its measured viability value.
Result: 110

Task: For the molecule `Cc1ccccc1NC(=O)c1ccc(NC(=O)c2ccco2)cc1` , give its measured viability value.
Result: 102

Task: For the molecule `Cc1nnc(Nc2ccccn2)c2ccccc12` , give its measured viability value.
Result: 81.1

Task: For the molecule `CC(=O)Nc1ccc(N2CCN(Cc3ccccc3F)CC2)cc1` , give its measured viability value.
Result: 88.8

Task: For the molecule `Cc1cccc(NC(=O)c2cc3ccccc3o2)c1` , give its measured viability value.
Result: 75.8

Task: For the molecule `Cc1ccc(-c2nnc(SCC(=O)N3c4ccccc4NC(=O)C3(C)C)n2N)cc1` , give its measured viability value.
Result: 105

Task: For the molecule COC1CCCCC1NS(=O)(=O)c1ccccc1 (configuration not stated) , give its measured viability value.
Result: 97.8

###

So I've got a bunch of compounds here, and I need their inhibition values.
Assay: growth suppression of yeast trafficking mutant, preliminary HTS, modulators of trafficking downstream of Golgi apparatus project, 1536-format plate, OD 615 nm (AID 637)
Settings: yeast transport mutant growth, absorbance 615 nm, 18 h; stronger effect = higher value
Reply numerically in %, unit not repeated.

Task: For the compound `O=C(Nc1nnc(C2CCCC2)s1)C1CCN(S(=O)(=O)c2ccc(Cl)cc2)CC1` , give its measured inhibition value.
Result: -5.64

Task: For the compound `CCCCOC(=O)CSc1nc2c(cc1C#N)C(=O)CC(C)(C)C2` , give its measured inhibition value.
Result: -2.73

Task: For the compound O=C(CC(SCCO)c1ccc2c(c1)OCO2)c1ccco1 (stereo not drawn) , give its measured inhibition value.
Result: -3.65

Task: For the compound `COc1ccccc1Cn1c(-c2ccco2)nc2nc3ccccc3nc21` , give its measured inhibition value.
Result: 8.41

Task: For the compound `O=C(CSCc1n[nH]c(=O)[nH]1)NCCOc1cccc(Oc2ccccc2)c1` , give its measured inhibition value.
Result: 2.73

Task: For the compound `Cc1nnc(C)c2c(C)n(Cc3ccc4c(c3)OCO4)c(C)c12` , give its measured inhibition value.
Result: 24.5

Task: For the compound `COc1ccc(NC(=O)N2CCC(c3nc(-c4cccs4)no3)CC2)cc1` , give its measured inhibition value.
Result: 0.73

Task: For the compound `O=S(=O)(Nc1cccnc1)c1ccc2c(c1)OCCO2` , give its measured inhibition value.
Result: 3.17

Task: For the compound `O=C(c1cccc2c1C(=O)N(Cc1cccnc1)C2)N1CCN(c2ccccc2)CC1` , give its measured inhibition value.
Result: -1.09

Task: For the compound `C=COCCNC(=O)Nc1ccc(Cl)c(Cl)c1` , give its measured inhibition value.
Result: -1.09

Task: For the compound CC(CCc1ccccc1)NC(=O)CSc1nc(N)cc(N)n1 (stereo not drawn) , give its measured inhibition value.
Result: -1.45

Task: For the compound `Cc1nc(-c2coc3cc(OCC(=O)O)ccc3c2=O)cs1` , give its measured inhibition value.
Result: -7.64

Task: For the compound `Cn1cccc1Cc1nnc(SCC(=O)N2CCOCC2)n1-c1ccc(F)cc1` , give its measured inhibition value.
Result: 0.33

Task: For the compound `COc1ccc(C(=O)N2CCN(C(=O)c3ccco3)CC2)cc1OC` , give its measured inhibition value.
Result: 0.32

Task: For the compound `Cc1ccc2[nH]c3c(=O)n(CCCN4CCN(C)CC4)cnc3c2c1` , give its measured inhibition value.
Result: 0

Task: For the compound Cc1nn(Cc2ccccc2)c2c1C(c1ccncc1)C(C#N)=C(N)O2 (stereo not drawn) , give its measured inhibition value.
Result: -3.27

Task: For the compound CC1CC(C)CN(c2nc3c(c(=O)[nH]c(=O)n3C)n2CCCSc2nc3ccccc3s2)C1 (stereo not drawn) , give its measured inhibition value.
Result: 4.36

Task: For the compound `CCN(C(=O)c1cccs1)c1nnc(-c2ccncc2)s1` , give its measured inhibition value.
Result: 2.91

Task: For the compound Cc1ccc(S(=O)(=O)N2CCN(C(=O)CN3CCOCC3)C2C(C)C)cc1 (stereo not drawn) , give its measured inhibition value.
Result: -2.54

Task: For the compound CC1CN(C(=O)CSc2ncnc3sccc23)CC(C)O1 (stereo not drawn) , give its measured inhibition value.
Result: 0

Task: For the compound Cc1cccc(OCC(=O)N2CCC(c3ccccc3)C2)c1 (stereo not drawn) , give its measured inhibition value.
Result: -1.83

Task: For the compound `O=C(NCc1nnc(SCC(=O)N2CCC(Cc3ccccc3)CC2)o1)c1ccccc1F` , give its measured inhibition value.
Result: 3.11

Task: For the compound `CCCCNC(=O)OCCNC(=O)NC` , give its measured inhibition value.
Result: -5.45
